- Experimental Target: recombinant GSK3β kinase (Homo sapiens (Human))
- Assay Comment: GSK3β kinase assay (Ser/Thr 09 peptide Z-lyte, FRET)
- Assay type: biochemical
- Study Conditions: GSK3β kinase, 46 μM ATP, one hour; method calls values IC50
Test Readout: pEC50
API: returns pEC50 as number; meaning -log10 of concentration in mol/L.

Compound: Cn1cc(-c2ccc3cnc(NC(=O)c4cn(C5CCN(CCF)CC5)nn4)cc3c2)nn1 [Compound 34]
Experimental Target: recombinant GSK3β kinase (Homo sapiens (Human))
pEC50: 6.40
//
Compound: CN(C)C1CN(c2nc(C(=O)Nc3cc4cc(-c5cnn(C)c5)ccc4cn3)co2)C1 [Compound 18]
Experimental Target: recombinant GSK3β kinase (Homo sapiens (Human))
pEC50: 5.90
//
Compound: Cn1cc(-c2ccc3cnc(NC(=O)c4coc(C5CCNCC5)n4)cc3c2)nn1 [Compound 36]
Experimental Target: recombinant GSK3β kinase (Homo sapiens (Human))
pEC50: 6.34

Test item CN1CCC(n2cc(C(=O)Nc3cc4cc(-c5cnn(C)c5)ccc4cn3)cn2)CC1 [Compound 4] ; recombinant GSK3β kinase (Homo sapiens (Human)); reported pEC50 was 5.83

Test item Cc1csc(C(=O)Nc2cc3cc(-c4cncn4C)ccc3cn2)n1 [Compound 56] ; recombinant GSK3β kinase (Homo sapiens (Human)); reported pEC50 was 5.00

###

Each entry below carries its recorded pEC50.
- Experimental Target: recombinant DYRK1A kinase (Homo sapiens (Human), UniProt Q13627)
- Assay Comment: DYRK1A kinase assay (Ser/Thr 18 peptide Z-lyte, FRET)
- Study Conditions: DYRK1A kinase, 30 μM ATP, one hour; method calls values IC50
API: returns pEC50 as number; meaning -log10 of concentration in mol/L.

The cases that follow already have their pEC50 on record.
Compound: CC(C)N1CCC(n2cc(C(=O)Nc3cc4cc(-c5cn(C)nn5)ccc4cn3)cn2)CC1 [Compound 32]
pEC50: 8.52
--
Compound: CC(C)OC(=O)N1CCC(n2cc(C(=O)Nc3cc4cc(-c5cnn(C)c5)ccc4cn3)cn2)CC1 [Compound 10]
pEC50: 8.52

Test item CN1CCC(n2cc(C(=O)Nc3cc4cc(-c5cnn(C)c5)ccc4cn3)nn2)CC1 [Compound 12] ; recombinant DYRK1A kinase (Homo sapiens (Human), UniProt Q13627); reported pEC50 was 8.05

###

- Experimental Target: recombinant GSK3β kinase (Homo sapiens (Human))
- Assay Comment: GSK3β kinase assay (Ser/Thr 09 peptide Z-lyte, FRET)
- Format: biochemical
- Study Conditions: GSK3β kinase, 46 μM ATP, one hour; method calls values IC50
Each entry below carries its recorded pEC50.
API: returns pEC50 as number; meaning -log10 of concentration in mol/L.

The cases that follow already have their pEC50 on record.
Test Smiles: CC(C)n1cnc(C(=O)Nc2cc3cc(-c4cncn4C)ccc3cn2)c1
Test Readout: pEC50
Assay Result: 5.87

Test Smiles: Cn1cnc(C(=O)Nc2cc3cc(-c4cncn4C)ccc3cn2)c1
Test Readout: pEC50
Assay Result: 5.47

Test Smiles: Cc1ncc(-c2ccc3cnc(NC(=O)c4cnn(C5CCN(C)CC5)c4)cc3c2)o1
Test Readout: pEC50
Assay Result: 6.21

Test Smiles: Cc1ncc(-c2ccc3cnc(NC(=O)c4cnn(C)c4)cc3c2)n1C
Test Readout: pEC50
Assay Result: 5.40

Test Smiles: Cc1nnc(-c2ccc3cnc(NC(=O)c4coc(C5CCNCC5)n4)cc3c2)s1
Test Readout: pEC50
Assay Result: 6.18

The measured pEC50 associated with CN1CCC(n2cc(C(=O)Nc3cc4cc(-c5cn(C)nn5)ccc4cn3)cn2)CC1 reads 6.49

The measured pEC50 associated with Cn1cc(-c2ccc3cnc(NC(=O)c4cn(C5CCNCC5)nn4)cc3c2)nn1 reads 6.50

###

- System: primary human fibroblasts derived from IPF patients (LL29 cells), α-smooth muscle actin
- Assay Comment: Inhibition of fibrotic process: αSMA in TGF-β1 treated LL29 fibroblasts
- Format: cell-based
- Study Conditions: Homo sapiens, Fibroblast, 96 h; LL29 cells, TGF-β1 20 ng/mL, 4 days, % cells positive for αSMA
Test Readout: EC50 (µM)
The answer is to be given in µM; state only the numeric part.

Test Smiles: Cc1nc(C(=O)Nc2cc3cc(-c4cncn4C)ccc3cn2)co1
EC50 / µM: 2.42

Test Smiles: Cc1ncc(-c2ccc3cnc(NC(=O)c4cnn(C5CCN(C)CC5)c4)cc3c2)o1
EC50 / µM: 0.113

Test Smiles: CN1CCN(c2nc(C(=O)Nc3cc4cc(-c5cnn(C)c5)ccc4cn3)cs2)CC1
EC50 / µM: 4.7

Test Smiles: Cc1nnc(C(=O)Nc2cc3cc(-c4cncn4C)ccc3cn2)s1
EC50 / µM: 1.42

Test Smiles: CC(C)N1CCC(n2cc(C(=O)Nc3cc4cc(-c5cn(C)nn5)ccc4cn3)nn2)CC1
EC50 / µM: 0.635

The measured EC50 associated with Cn1cc(-c2ccc3cnc(NC(=O)c4cnn(C5CCNCC5)c4)cc3c2)cn1 reads 0.093

The measured EC50 associated with CN1CCC(c2nc(C(=O)Nc3cc4cc(-c5cnn(C)c5)ccc4cn3)co2)CC1 reads 2

The measured EC50 associated with [2H]c1nc(NC(=O)c2cnn(C(C)C)c2)cc2cc(-c3cncn3C)ccc12 reads 0.151

The measured EC50 associated with CC(C)n1cc(C(=O)Nc2cc3cc(-c4cnn(C5CCN(C)CC5)c4)ccc3cn2)cn1 reads 0.953

The measured EC50 associated with [2H]C([2H])([2H])n1cc(-c2ccc3cnc(NC(=O)c4cnn(C5CCNCC5)c4)cc3c2)cn1 reads 0.074

The measured EC50 associated with Cc1ncc(C(=O)Nc2cc3cc(-c4cnc(C)n4C)ccc3cn2)s1 reads 0.644

###

- Experimental Target: recombinant GSK3β kinase (Homo sapiens (Human), UniProt P49841)
- Sequence (P49841 whole entry): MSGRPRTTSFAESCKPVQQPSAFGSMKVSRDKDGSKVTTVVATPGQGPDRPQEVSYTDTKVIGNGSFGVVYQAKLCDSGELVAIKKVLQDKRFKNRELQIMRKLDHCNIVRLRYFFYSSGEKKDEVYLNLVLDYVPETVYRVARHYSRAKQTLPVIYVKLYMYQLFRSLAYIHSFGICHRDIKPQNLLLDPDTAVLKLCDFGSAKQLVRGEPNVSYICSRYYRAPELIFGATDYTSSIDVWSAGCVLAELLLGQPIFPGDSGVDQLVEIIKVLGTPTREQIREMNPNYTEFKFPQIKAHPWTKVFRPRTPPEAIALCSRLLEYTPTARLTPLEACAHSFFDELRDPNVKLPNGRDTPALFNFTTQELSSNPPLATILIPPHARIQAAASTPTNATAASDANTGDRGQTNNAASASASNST
- Assay Comment: GSK3β kinase assay (Ser/Thr 09 peptide Z-lyte, FRET)
- Assay type: biochemical
- Study Conditions: GSK3β kinase, 46 μM ATP, one hour; method calls values IC50
Test Readout: pEC50
API: returns pEC50 as number; meaning -log10 of concentration in mol/L.

Test Smiles: CC(C)N1CCC(n2cc(C(=O)Nc3cc4cc(-c5cnn(C)c5)ccc4cn3)nn2)CC1
pEC50: 5.56

The measured pEC50 associated with Cc1ncc(-c2ccc3cnc(NC(=O)Cn4ccnc4)cc3c2)o1 reads 8.05

The measured pEC50 associated with Cc1coc(C(=O)Nc2cc3cc(-c4cncn4C)ccc3cn2)n1 reads 6.01

###

- Experimental Target: recombinant GSK3β kinase (Homo sapiens (Human), UniProt P49841)
- Assay Comment: GSK3β kinase assay (Ser/Thr 09 peptide Z-lyte, FRET)
- Format: biochemical
- Study Conditions: GSK3β kinase, 46 μM ATP, one hour; method calls values IC50
Test Readout: pEC50
API: returns pEC50 as number; meaning -log10 of concentration in mol/L.

The cases that follow already have their pEC50 on record.
Compound: Cc1nnc(C(=O)Nc2cc3cc(-c4cncn4C)ccc3cn2)s1 [Compound 59]
Test Readout: pEC50
Assay Result: 5.85
--
Compound: CCN1CCC(n2cc(C(=O)Nc3cc4cc(-c5cn(C)nn5)ccc4cn3)cn2)CC1 [Compound 31]
Test Readout: pEC50
Assay Result: 6.54
--
Compound: CN1CCN(c2nc(C(=O)Nc3cc4cc(-c5cnn(C)c5)ccc4cn3)co2)CC1 [Compound 23]
Test Readout: pEC50
Assay Result: 5.66
--
Compound: Cn1cnc(C(=O)Nc2cc3cc(-c4cncn4C)ccc3cn2)n1 [Compound 52]
Test Readout: pEC50
Assay Result: 5.30
--
Compound: CCn1cc(C(=O)Nc2cc3cc(-c4cncn4C)ccc3cn2)cn1 [Compound 41]
Test Readout: pEC50
Assay Result: 6.07

The measured pEC50 associated with CN1CCC(c2nc(C(=O)Nc3cc4cc(-c5cn(C)nn5)ccc4cn3)co2)CC1 [Compound 37] reads 6.47

The measured pEC50 associated with Cn1cc(-c2ccc3cnc(NC(=O)c4cn(C5CCNCC5)nn4)cc3c2)cn1 [Compound 11] reads 5.00

The measured pEC50 associated with Cc1nnc(C(=O)Nc2cc3cc(-c4cncn4C)ccc3cn2)o1 [Compound 58] reads 5.36

The measured pEC50 associated with Cc1ncc(-c2ccc3cnc(NC(=O)c4cnn(C(C)C)c4)cc3c2)n1C [Compound 61] reads 5.17

The measured pEC50 associated with Cn1cc(-c2ccc3cnc(NC(=O)c4cn(C5CCN(CCF)CC5)nn4)cc3c2)cn1 [Compound 13] reads 5.68

###

- System: primary human fibroblasts derived from IPF patients (LL29 cells), α-smooth muscle actin
- Assay Comment: Inhibition of fibrotic process: αSMA in TGF-β1 treated LL29 fibroblasts
- Assay type: cell-based
- Study Conditions: Homo sapiens, Fibroblast, 96 h; LL29 cells, TGF-β1 20 ng/mL, 4 days, % cells positive for αSMA
- Description: Representative compounds were screened using primary human fibroblasts (derived from IPF patients) treated with TGF-β1 to determine their ability to inhibit the fibrotic process. LL29 cells were plated at 1,500 cells/well in 70 μL/well F12 medium supplemented with 1% Fetal Bovine Serum. […] Wells treated with TGF-β1 and containing DMSO were used as positive control, and cells with only DMSO were negative control. […]
Test Readout: EC50

Test Smiles: CC(C)N1CCC(c2nc(C(=O)Nc3cc4cc(-c5cn(C)nn5)ccc4cn3)co2)CC1
Experimental Target: primary human fibroblasts derived from IPF patients (LL29 cells), α-smooth muscle actin
EC50: > 10 µM
--
Test Smiles: Cc1nnc(-c2ccc3cnc(NC(=O)c4coc(C5CCN(C)CC5)n4)cc3c2)s1
Experimental Target: primary human fibroblasts derived from IPF patients (LL29 cells), α-smooth muscle actin
EC50: > 10 µM
--
Test Smiles: Cn1cc(-c2ccc3cnc(NC(=O)c4cnn(C5CCN(C6CC6)CC5)c4)cc3c2)cn1
Experimental Target: primary human fibroblasts derived from IPF patients (LL29 cells), α-smooth muscle actin
EC50: > 10 µM

The measured EC50 associated with Cc1ncc(C(=O)Nc2cc3cc(-c4cncn4C)ccc3cn2)n1C reads > 10 µM

Source of measurements: patent US10744128B2
